Test system: HaCat Human keratinocyte
experiment notes: Secondary cytotoxicity test, HaCat
Format: cell-based
pIC50: −log10 of the molar value.

[
  {
    "compound": "COc1cccc2c1C(=O)c1c(O)c3c(c(O)c1C2=O)C[C@@](O)(C(=O)CO)C[C@@H]3O[C@H]1C[C@H](N)[C@H](O)[C@H](C)O1 [Doxorubicin, reference compound]",
    "pIC50": 6.64
  },
  {
    "compound": "Cn1cnc([N+](=O)[O-])c1Sc1ncnc2nc[nH]c12 [Azathioprine]",
    "pIC50": 5.20
  }
]

---

A collection of molecules and their measured IC50
Test system: U2932 Human DLBCL (Diffuse large B-cell lymphoma)
experiment notes: Secondary cytotoxicity test, U2932
Assay type: cell-based

[
  {
    "molecule": "COc1cccc2c1C(=O)c1c(O)c3c(c(O)c1C2=O)C[C@@](O)(C(=O)CO)C[C@@H]3O[C@H]1C[C@H](N)[C@H](O)[C@H](C)O1 [Doxorubicin, reference compound]",
    "experimental system": "U2932 Human DLBCL (Diffuse large B-cell lymphoma)",
    "units label": "µM",
    "IC50": 0.44
  },
  {
    "molecule": "Cn1cnc([N+](=O)[O-])c1Sc1ncnc2nc[nH]c12",
    "experimental system": "U2932 Human DLBCL (Diffuse large B-cell lymphoma)",
    "units label": "µM",
    "IC50": 4.2
  }
]

---

System: MKN45 Human stomach adenocarcinoma
experiment notes: Secondary cytotoxicity test, MKN45
Format: cell-based
measurement context: MKN-45
pIC50: −log10 of the molar value.

[
  {
    "compound": "COc1cccc2c1C(=O)c1c(O)c3c(c(O)c1C2=O)C[C@@](O)(C(=O)CO)C[C@@H]3O[C@H]1C[C@H](N)[C@H](O)[C@H](C)O1 [Doxorubicin, reference compound]",
    "pIC50": 6.55
  },
  {
    "compound": "Cn1cnc([N+](=O)[O-])c1Sc1ncnc2nc[nH]c12 [Azathioprine]",
    "pIC50": 5.92
  }
]

---

System: MCF-7 Human breast adenocarcinoma
experiment notes: Secondary cytotoxicity test, MCF-7
Assay type: cell-based
measurement context: MCF7
A collection of compounds and their measured IC50

[
  {
    "compound": "Cn1cnc([N+](=O)[O-])c1Sc1ncnc2nc[nH]c12",
    "IC50, nM": 2600
  },
  {
    "compound": "COc1cccc2c1C(=O)c1c(O)c3c(c(O)c1C2=O)C[C@@](O)(C(=O)CO)C[C@@H]3O[C@H]1C[C@H](N)[C@H](O)[C@H](C)O1 [Doxorubicin, reference compound]",
    "IC50, nM": 550
  }
]
